Taken from ChEMBL document CHEMBL1134008.

Here, each record is paired with measured IC50 data.
Target: Adrenergic receptor alpha-2 (Rattus norvegicus, UniProt P22086+P19328+P22909)
Test: Inhibition of binding of [3H]rauwolscine to Alpha-2 adrenergic receptor in rat cortical membranes
Format: cell membranes, Membrane
All answers are understood in µM, so give the number only.

c1ccc(CN2CCCC3Cc4ccccc4CC32)cc1 (stereo in doubt; trans)    5.9
COc1cccc2c1CC1CCCNC1C2 (trans isomer)    67.5
COc1cccc2c1CC1CCCN(Cc3ccccc3)C1C2 (stereo in doubt; cis)    38
c1ccc(CN2CCCC3Cc4ccccc4CC32)cc1 (stereo in doubt; cis)    214
c1ccc2c(c1)CC1CCCNC1C2 (stereo unspecified)    130

For the compound COc1cccc2c1CC1CCCN(Cc3ccccc3)C1C2 (stereo in doubt; trans) , report IC50. 6

----------
Target: D(2) dopamine receptor (Rattus norvegicus)
Sequence (P61169 whole entry): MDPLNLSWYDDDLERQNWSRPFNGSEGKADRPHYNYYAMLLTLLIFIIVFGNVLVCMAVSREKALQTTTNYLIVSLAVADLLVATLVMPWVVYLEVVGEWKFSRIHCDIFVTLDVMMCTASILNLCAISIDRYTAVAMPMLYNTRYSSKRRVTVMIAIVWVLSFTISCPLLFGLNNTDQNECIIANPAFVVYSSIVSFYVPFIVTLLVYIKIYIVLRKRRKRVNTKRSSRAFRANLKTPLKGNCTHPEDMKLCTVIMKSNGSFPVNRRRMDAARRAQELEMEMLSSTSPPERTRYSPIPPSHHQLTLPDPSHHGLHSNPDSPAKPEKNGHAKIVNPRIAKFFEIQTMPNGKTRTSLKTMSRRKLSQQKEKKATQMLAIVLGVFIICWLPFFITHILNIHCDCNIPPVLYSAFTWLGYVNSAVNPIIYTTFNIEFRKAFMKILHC
Experiment: Inhibition of binding of [3H]spiroperidol to Dopamine receptor D2 in rat striatal membranes
Format: cell membranes, Membrane
measuredProperty: pIC50
Expect pIC50 as a plain number equal to -log10 of the molar concentration.

Quote D(2) dopamine receptor (Rattus norvegicus) pIC50 for entry NC1CCc2c(ccc(O)c2O)C1 (racemic) . 6.15
